Molecular target: memapsin 2 (Homo sapiens, UniProt P56817)
Sequence (P56817 46-501): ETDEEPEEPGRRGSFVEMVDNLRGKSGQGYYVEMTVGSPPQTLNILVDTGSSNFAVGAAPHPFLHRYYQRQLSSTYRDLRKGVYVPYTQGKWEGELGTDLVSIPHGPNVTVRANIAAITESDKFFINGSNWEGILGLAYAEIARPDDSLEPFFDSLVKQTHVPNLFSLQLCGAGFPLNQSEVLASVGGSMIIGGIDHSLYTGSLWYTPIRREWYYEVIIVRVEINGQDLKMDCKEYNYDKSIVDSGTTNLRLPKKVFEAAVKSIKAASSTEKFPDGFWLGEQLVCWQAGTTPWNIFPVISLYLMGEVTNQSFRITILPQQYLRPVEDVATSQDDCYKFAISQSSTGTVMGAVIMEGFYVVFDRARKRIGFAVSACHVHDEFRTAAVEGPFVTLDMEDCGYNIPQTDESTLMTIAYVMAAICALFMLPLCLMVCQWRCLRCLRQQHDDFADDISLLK
Test: Inhibition of memapsin 2 beta-secretase activity (fluorogenic substrate FS-2)
Format: biochemical
Settings: memapsin 2, pH 4, 37° C., 20 minutes pre-incubation; read-out: M2Ki
Procedure: Potency of compounds were determined by measurement of their inhibition of memapsin 2 activity toward a fluorescent substrate. Kinetic inhibition experiments were performed using the procedure as described in Ermolieff, et al. (Biochemistry 39:12450-12456 (2000), the teachings of which are incorporated hereby in their entirety). […] Fluorescent signal increase over time was measured as a rate of hydrolysis of the peptide substrate. […]
pKi: −log10 of the molar value.
Measurement label: pKi

Please review the following examples before continuing.
Cc1csc(CN(C)C(=O)c2cccc(C(=O)N[C@@H](Cc3ccccc3)[C@H](O)CNCc3ccnc(C(C)C)c3)c2)n1 :: > 6.52
Cc1csc(CN(C(=O)c2cccc(C(=O)N[C@@H](Cc3ccccc3)[C@H](O)CNCc3cccc(OC(F)(F)F)c3)c2)C2CC2)n1 :: > 6.52
COc1cccc(CNC[C@@H](O)[C@H](Cc2ccccc2)NC(=O)c2cc(C)cc(C(=O)N(Cc3nc(C)cs3)C3CC3)c2)c1 :: > 6.52

Data request, read-out pKi, for `Cc1csc(CN(C)C(=O)c2cccc(C(=O)N[C@@H](Cc3ccccc3)[C@H](O)CNCc3cncc(C(C)(C)C)c3)c2)n1` > 6.52

Data request, read-out pKi, for `Cc1csc(CN(C)C(=O)c2cccc(C(=O)N[C@@H](Cc3ccccc3)[C@H](O)CNCc3cncc(C4CC4)c3)c2)n1` > 6.52

Data request, read-out pKi, for `C[C@@H](NC(=O)c1cc(C(=O)N[C@@H](Cc2ccccc2)[C@H](O)CNCc2cnn(C(C)(C)C)c2)cc(N(C)S(C)(=O)=O)c1)c1ccccc1` < 6.30
